Tested on: 922993-354-T-J3-PDC complex spheroids, viability, % test/control;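 also: spheroids exposed to the agents for 7 days before readout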
PROTOCOL_DETAILS: Anticancer human tumor 922993-354-T-J3-PDC patient-derived endometrial carcinoma cell line growth inhibition [CLK]
APPLIED_CONDITIONS: second compound 0.316 µM; first compound 0.0316 µM; active compounds read low

- COMPOUND: "CCCS(=O)(=O)Nc1ccc(F)c(C(=O)c2c[nH]c3ncc(-c4ccc(Cl)cc4)cc23)c1F + CNC(=O)c1ccc(Nc2nc(OC3CCCC3)c3c(-c4ccc5nc(C)oc5c4)c[nH]c3n2)c(OC)c1"
  viability, T/C (%): 70.8
- COMPOUND: "COc1c(OCCCN2CCOCC2)ccc2c3n(c(=NC(=O)c4cnc(N)nc4)nc12)CCN3 + CN1CCN(c2cc(C(=O)Nc3cc4cc(-c5cnn(C)c5)ccc4cn3)ccn2)CC1"
  viability, T/C (%): 39.8
- COMPOUND: "COC1C=CCC(C)C(C)S(=O)(=O)NC(=O)c2ccc3c(c2)N(CC2CCC21)CC1(CCCc2cc(Cl)ccc21)CO3 (stereo not given) + CN1CCN(c2cc(C(=O)Nc3cc4cc(-c5cnn(C)c5)ccc4cn3)ccn2)CC1"
  viability, T/C (%): 42.2
- COMPOUND: "C=CC(=O)N1CCN(c2nc(=O)n(-c3c(C)ccnc3C(C)C)c3nc(-c4c(O)cccc4F)c(F)cc23)C(C)C1 (stereo not given) + CNC(=O)c1ccc(Nc2nc(OC3CCCC3)c3c(-c4ccc5nc(C)oc5c4)c[nH]c3n2)c(OC)c1"
  viability, T/C (%): 66.9
- COMPOUND: "CCN1CCN(Cc2ccc(Nc3ncc(F)c(-c4cc(F)c5nc(C)n(C(C)C)c5c4)n3)nc2)CC1 + CN1CCN(c2cc(C(=O)Nc3cc4cc(-c5cnn(C)c5)ccc4cn3)ccn2)CC1"
  viability, T/C (%): 34.4

Source of measurements: PubChem BioAssay AID2060606
